# protocol notes: Toxicity liver stage against HepG2, at 10uM
# Assay type: cell-based
# Parameters: test concentration 10 uM, cell line HepG2-A16-CD81EGFP
# measurement parameters: human, HepG2-A16-CD81EGFP cells; read-out: INHIBITION
Measured cytotoxicity at 10 µM by item
endpoint name: cytotoxicity at 10 µM (%)

# molecule, endpoint name, measured value
measured = [
    ("O=C(c1cscn1)N1CCC2(CN(Cc3ccsc3)C2)C1", "cytotoxicity at 10 µM", 4.06),
    ("CCC(Nc1nc(CCN)nc2ccccc12)c1cc(C)ccn1 (stereo unspecified)", "cytotoxicity at 10 µM", -12.9),
    ("CCc1c(O)n(C(C)CC)c(SCC(=O)c2ccccc2)nc1=O (stereo unspecified)", "cytotoxicity at 10 µM", -2.11),
    ("COc1cccc(CN(C)CCCn2cnc3c(N)ncnc32)c1", "cytotoxicity at 10 µM", -2.63),
    ("c1csc(N2CCCN(c3nccn4cnnc34)CC2)n1", "cytotoxicity at 10 µM", -5.05),
    ("COc1cccc(-c2cnc(C3CCNCC3)cn2)c1", "cytotoxicity at 10 µM", -30.4),
]
